B1: PLD5 (parent)
chain: WIVDKQHVYIGSAGLDWQSLGQMK

- Variants of: B1
- measurement protocol: protein stability index of a GFP-peptide fusion (GPS, HEK-293T) (PSI 1-6); higher = more stable;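 note: lentivirally expressed fusions sorted by FACS into six bins by GFP to DsRed ratio, PSI derived from sequencing read proportions per bin multiplied by bin number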
- experimental context: c terminus: a fixed tail appended
Response key: rule met means protein stability index >= 2; rule not met means protein stability index < 2.

> print(dat)
              biopolymer.sequence    class.name
1  WIVDSQHVYIGSAGLDWQSLGQMK [K5S]  rule not met
2  WIRDKQHVYIGSAGLDWQSLGQMK [V3R]  rule not met
3  WIVDKLHVYIGSAGLDWQSLGQMK [Q6L]      rule met

Q: Is protein stability index for WIVDKQHVYGGSAGLDWQSLGQMK [I10G] at or above 2?
A: rule not met

Q: Is protein stability index for WIVDKQHVYITSAGLDWQSLGQMK [G11T] at or above 2?
A: rule not met

Q: Is protein stability index for WIVDKQHVYIGSARLDWQSLGQMK [G14R] at or above 2?
A: rule met

Q: Is protein stability index for WIVRKQHVYIGSAGLDWQSLGQMK [D4R] at or above 2?
A: rule met

Q: Is protein stability index for WIVDKQTVYIGSAGLDWQSLGQMK [H7T] at or above 2?
A: rule met

Q: Is protein stability index for WIVDKQHVYIGSAGLDWQSLGQGK [M23G] at or above 2?
A: rule not met

Q: Is protein stability index for WIVDKQHVVIGSAGLDWQSLGQMK [Y9V] at or above 2?
A: rule not met

Q: Is protein stability index for WHVDKQHVYIGSAGLDWQSLGQMK [I2H] at or above 2?
A: rule not met

Q: Is protein stability index for WIVDKQHVYIGSAGLDWQSQGQMK [L20Q] at or above 2?
A: rule not met

Q: Is protein stability index for WIVDKQHVYYGSAGLDWQSLGQMK [I10Y] at or above 2?
A: rule not met

# credit: the supplement of paper PMC10567573
